molecules and their reported isoTOP-ABPP ratio Q9NYL2_C22
EXPERIMENTAL TARGET: cysteines in MDA-MB-231 and Ramos cells (Homo sapiens, UniProt Q9NYL2)
Sequence (Q9NYL2 whole entry, the tested form may be a part): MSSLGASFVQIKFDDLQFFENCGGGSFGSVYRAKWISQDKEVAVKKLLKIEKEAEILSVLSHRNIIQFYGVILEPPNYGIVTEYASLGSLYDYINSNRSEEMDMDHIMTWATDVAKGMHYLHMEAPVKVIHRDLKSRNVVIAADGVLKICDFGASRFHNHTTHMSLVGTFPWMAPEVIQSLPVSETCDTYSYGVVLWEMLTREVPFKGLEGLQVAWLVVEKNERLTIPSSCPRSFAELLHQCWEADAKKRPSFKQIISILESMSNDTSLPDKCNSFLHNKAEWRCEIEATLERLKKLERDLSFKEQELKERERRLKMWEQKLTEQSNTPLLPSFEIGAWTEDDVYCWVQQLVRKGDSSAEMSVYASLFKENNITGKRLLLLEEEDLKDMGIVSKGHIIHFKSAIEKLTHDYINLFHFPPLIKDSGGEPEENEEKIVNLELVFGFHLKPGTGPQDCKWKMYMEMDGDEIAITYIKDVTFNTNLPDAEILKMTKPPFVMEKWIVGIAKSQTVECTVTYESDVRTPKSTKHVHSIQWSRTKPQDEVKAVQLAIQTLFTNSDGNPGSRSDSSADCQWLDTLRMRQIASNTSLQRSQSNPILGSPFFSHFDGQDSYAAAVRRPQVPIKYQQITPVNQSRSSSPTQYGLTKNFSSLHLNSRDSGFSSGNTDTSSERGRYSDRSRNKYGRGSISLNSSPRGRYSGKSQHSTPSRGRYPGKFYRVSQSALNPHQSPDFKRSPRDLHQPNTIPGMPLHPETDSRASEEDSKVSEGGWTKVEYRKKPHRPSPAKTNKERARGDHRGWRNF
EXPERIMENTAL PROTOCOL: Competitive isoTOP-ABPP in situ (fragment-treated cells)
Type: cell-based
CONDITION INFO: 200 μM, insitu, 231
Form: value (number only, do not type unit).

The examples below pair each entry with its known result.
1) O=C(CCl)N1CCN(S(=O)(=O)c2ccccc2F)CC1	1.2
2) CC1CCc2ccccc2N1C(=O)CCl (stereo not drawn)	2.3

[ask] Look at this molecule and give its reported isoTOP-ABPP ratio Q9NYL2_C22. "O=C(CCl)NC(=O)NC12CC3CC(CC(C3)C1)C2"
[reply] 0.7

[ask] "Cc1ccc(C=C(C#N)C(=O)NCCN2CCOCC2)cc1" , same question.
[reply] 0.6

[ask] "O=C(CCl)NCCc1c[nH]c2ccccc12" , same question.
[reply] 1.3

[ask] "CC(C)CCOCCNC(=O)CCl" , same question.
[reply] 0.7

###

molecules and their reported isoTOP-ABPP ratio, P09211_C48
EXPERIMENTAL TARGET: GSTP1 C48 (P09211) (Homo sapiens)
Sequence (P09211 whole entry): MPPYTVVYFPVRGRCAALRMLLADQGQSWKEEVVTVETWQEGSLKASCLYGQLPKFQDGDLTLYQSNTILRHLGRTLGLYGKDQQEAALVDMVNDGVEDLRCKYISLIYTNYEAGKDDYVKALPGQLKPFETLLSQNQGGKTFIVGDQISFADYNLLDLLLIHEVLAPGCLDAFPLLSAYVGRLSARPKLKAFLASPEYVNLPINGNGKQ
EXPERIMENTAL PROTOCOL: Competitive isoTOP-ABPP, cell lysates
Format: binding
CONDITION INFO: 500 μM, invitro, ramos
Form: value (number only, do not type unit).

The examples below pair each entry with its known result.
1) C=CC(=O)N(c1ccccc1)c1ccc(Br)cc1	2.4
2) O=C(CCl)N1CCN(S(=O)(=O)c2ccccc2F)CC1	0.8
3) O=C(CCl)NC(=O)NC12CC3CC(CC(C3)C1)C2	1.1
4) O=C(CCl)NCCc1c[nH]c2ccccc12	1.2

Next, consider the following molecule.
[ask] Look at this molecule and give its reported isoTOP-ABPP ratio, P09211_C48. "Cn1cc(S(=O)(=O)N2CCOCC2)cc1C(=O)NC(=O)CCl"
[reply] 1.1

###

EXPERIMENTAL TARGET: cysteines in MDA-MB-231 and Ramos cells (Homo sapiens)
Sequence (Q86YH6 1-399): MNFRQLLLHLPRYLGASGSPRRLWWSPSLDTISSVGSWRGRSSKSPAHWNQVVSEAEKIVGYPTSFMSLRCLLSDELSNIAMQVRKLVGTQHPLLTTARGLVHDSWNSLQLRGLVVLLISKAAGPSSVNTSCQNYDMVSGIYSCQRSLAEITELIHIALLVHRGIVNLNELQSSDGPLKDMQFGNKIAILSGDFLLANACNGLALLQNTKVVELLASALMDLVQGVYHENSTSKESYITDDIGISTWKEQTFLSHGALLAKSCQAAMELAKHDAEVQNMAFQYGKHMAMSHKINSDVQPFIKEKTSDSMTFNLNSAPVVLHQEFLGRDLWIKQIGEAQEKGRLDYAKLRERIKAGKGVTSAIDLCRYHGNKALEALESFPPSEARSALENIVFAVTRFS
EXPERIMENTAL PROTOCOL: Competitive isoTOP-ABPP in situ (fragment-treated cells)
Assay type: cell-based
CONDITION INFO: 200 μM, insitu, 231
ASSAY ENDPOINT: isoTOP-ABPP ratio Q86YH6_C71

The examples below pair each entry with its known result.
1. O=C(CCl)NCCc1c[nH]c2ccccc12 [compound 13]	1.2
2. Cc1ccc(C=C(C#N)C(=O)NCCN2CCOCC2)cc1 [compound 41]	0.9
3. CC1CCc2ccccc2N1C(=O)CCl (stereo not shown) [compound 45]	20.0
4. CC(C)CCOCCNC(=O)CCl [compound 27]	1.3
5. O=C(CCl)NC12CC3CC(CC(C3)C1)C2 [compound 21]	2.1
6. O=C(CCl)NC(=O)NC12CC3CC(CC(C3)C1)C2 [compound 12]	20.0

[ask] Look at this compound and give its reported isoTOP-ABPP ratio Q86YH6_C71. O=C(CCl)N1CCN(S(=O)(=O)c2ccccc2F)CC1 [compound 10]
[reply] 20.0

###

compounds and their reported isoTOP-ABPP ratio (reactivity profile), Q5T1V6_C414
EXPERIMENTAL TARGET: DDX59 C414 (Q5T1V6) (Homo sapiens)
Sequence (Q5T1V6 whole entry): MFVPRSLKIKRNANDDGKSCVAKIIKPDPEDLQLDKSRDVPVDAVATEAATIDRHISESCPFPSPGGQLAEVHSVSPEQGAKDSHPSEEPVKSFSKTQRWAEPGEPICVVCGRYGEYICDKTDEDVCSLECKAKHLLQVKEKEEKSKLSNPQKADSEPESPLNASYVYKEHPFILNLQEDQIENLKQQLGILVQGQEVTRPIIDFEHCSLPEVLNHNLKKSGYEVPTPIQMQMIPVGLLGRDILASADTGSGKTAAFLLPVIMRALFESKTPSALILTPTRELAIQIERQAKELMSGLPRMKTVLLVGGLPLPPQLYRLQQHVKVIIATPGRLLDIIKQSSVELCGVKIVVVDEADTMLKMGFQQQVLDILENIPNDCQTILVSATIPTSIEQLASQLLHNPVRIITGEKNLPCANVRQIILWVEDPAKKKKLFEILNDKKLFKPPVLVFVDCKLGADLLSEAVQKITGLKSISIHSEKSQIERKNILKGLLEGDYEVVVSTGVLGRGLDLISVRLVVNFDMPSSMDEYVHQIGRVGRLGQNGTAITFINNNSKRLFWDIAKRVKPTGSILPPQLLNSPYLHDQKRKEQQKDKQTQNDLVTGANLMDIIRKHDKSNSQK
EXPERIMENTAL PROTOCOL: Competitive isoTOP-ABPP, cell lysates
Type: binding
CONDITION INFO: 500 μm in-vitro ramos
Form: value (number only, do not type unit).

The examples below pair each entry with its known result.
1. CC(Br)C(=O)Nc1cc(C(F)(F)F)cc(C(F)(F)F)c1 (stereo not drawn)	1.7
2. C=CC(=O)N(Cc1cccnc1)c1ccc(Oc2ccccc2)c(C(F)(F)F)c1	1.0
3. O=C(CCl)N1CCOCC1	1.3

[ask] Look at this compound and give its reported isoTOP-ABPP ratio (reactivity profile), Q5T1V6_C414. "O=C(CCl)N1CCC(C(O)(c2ccccc2)c2ccccc2)CC1"
[reply] 3.1

[ask] "N#C/C(=C\c1cc(C(F)(F)F)cc(C(F)(F)F)c1)C(N)=O" , same question.
[reply] 1.4

[ask] "CC(C)CCOCCNC(=O)CCl" , same question.
[reply] 1.0

###

compounds and their reported isoTOP-ABPP ratio P38606_C138
EXPERIMENTAL TARGET: cysteines in MDA-MB-231 and Ramos cells (Homo sapiens)
EXPERIMENTAL PROTOCOL: Competitive isoTOP-ABPP in situ (fragment-treated cells)
Assay type: cell-based
CONDITION INFO: 200 μM, insitu, 231

[ask] Look at this compound and give its reported isoTOP-ABPP ratio P38606_C138. O=C(CCl)Nc1cccc2ncccc12 [compound 51]
[reply] 10.6

###

compounds and their reported isoTOP-ABPP ratio P13667_C555
EXPERIMENTAL TARGET: cysteines in MDA-MB-231 and Ramos cells (Homo sapiens)
EXPERIMENTAL PROTOCOL: Competitive isoTOP-ABPP in situ (fragment-treated cells)
Type: cell-based
CONDITION INFO: 200 μM, insitu, ramos
Form: value (number only, do not type unit).

The examples below pair each entry with its known result.
1) C=CC(=O)N(Cc1cccnc1)c1cc(C(F)(F)F)cc(C(F)(F)F)c1 [compound 31]	1.1
2) O=C(CCl)NCCc1c[nH]c2ccccc12 [compound 13]	2.0
3) O=C(CCl)N1CCN(CC(=O)N2CCOCC2)CC1 [compound 29]	1.5

Next, consider the following compound.
[ask] Look at this compound and give its reported isoTOP-ABPP ratio P13667_C555. O=C(CCl)N1CCN(S(=O)(=O)c2ccccc2F)CC1 [compound 10]
[reply] 1.4

###

EXPERIMENTAL TARGET: UniProtKB O14933
Sequence (O14933 whole entry): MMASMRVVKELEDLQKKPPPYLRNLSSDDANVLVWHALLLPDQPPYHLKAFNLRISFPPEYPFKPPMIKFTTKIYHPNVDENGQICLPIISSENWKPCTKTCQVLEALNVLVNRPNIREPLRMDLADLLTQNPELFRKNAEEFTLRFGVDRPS
EXPERIMENTAL PROTOCOL: Competitive isoTOP-ABPP, cell lysates
Format: binding
CONDITION INFO: 500 μm, in-vitro_ramos
compounds and their reported isoTOP-ABPP reactivity ratio, O114933_C98
Form: value (number only, do not type unit).

The examples below pair each entry with its known result.
1) C=CC(=O)Nc1cc(C)c(Br)cc1C	1.3
2) C=CC(=O)Nc1cc(F)c(N2CCN(C(=O)OC(C)(C)C)CC2)c(F)c1	1.7

[ask] Look at this compound and give its reported isoTOP-ABPP reactivity ratio, O114933_C98. "CCN(CC)c1ccc(S(N)(=O)=O)cc1NC(=O)CCl"
[reply] 2.1

[ask] "Cc1ccc(C=C(C#N)C(=O)NCCN2CCOCC2)cc1" , same question.
[reply] 1.1

[ask] "CC(C)(C)c1cc(NC(=O)CCl)on1" , same question.
[reply] 4.6

###

compounds and their reported isoTOP-ABPP reactivity profile ratio, Q8TAQ2_C145
EXPERIMENTAL TARGET: SMARCC2 C145 (Q8TAQ2) (Homo sapiens)
Sequence (Q8TAQ2 whole entry): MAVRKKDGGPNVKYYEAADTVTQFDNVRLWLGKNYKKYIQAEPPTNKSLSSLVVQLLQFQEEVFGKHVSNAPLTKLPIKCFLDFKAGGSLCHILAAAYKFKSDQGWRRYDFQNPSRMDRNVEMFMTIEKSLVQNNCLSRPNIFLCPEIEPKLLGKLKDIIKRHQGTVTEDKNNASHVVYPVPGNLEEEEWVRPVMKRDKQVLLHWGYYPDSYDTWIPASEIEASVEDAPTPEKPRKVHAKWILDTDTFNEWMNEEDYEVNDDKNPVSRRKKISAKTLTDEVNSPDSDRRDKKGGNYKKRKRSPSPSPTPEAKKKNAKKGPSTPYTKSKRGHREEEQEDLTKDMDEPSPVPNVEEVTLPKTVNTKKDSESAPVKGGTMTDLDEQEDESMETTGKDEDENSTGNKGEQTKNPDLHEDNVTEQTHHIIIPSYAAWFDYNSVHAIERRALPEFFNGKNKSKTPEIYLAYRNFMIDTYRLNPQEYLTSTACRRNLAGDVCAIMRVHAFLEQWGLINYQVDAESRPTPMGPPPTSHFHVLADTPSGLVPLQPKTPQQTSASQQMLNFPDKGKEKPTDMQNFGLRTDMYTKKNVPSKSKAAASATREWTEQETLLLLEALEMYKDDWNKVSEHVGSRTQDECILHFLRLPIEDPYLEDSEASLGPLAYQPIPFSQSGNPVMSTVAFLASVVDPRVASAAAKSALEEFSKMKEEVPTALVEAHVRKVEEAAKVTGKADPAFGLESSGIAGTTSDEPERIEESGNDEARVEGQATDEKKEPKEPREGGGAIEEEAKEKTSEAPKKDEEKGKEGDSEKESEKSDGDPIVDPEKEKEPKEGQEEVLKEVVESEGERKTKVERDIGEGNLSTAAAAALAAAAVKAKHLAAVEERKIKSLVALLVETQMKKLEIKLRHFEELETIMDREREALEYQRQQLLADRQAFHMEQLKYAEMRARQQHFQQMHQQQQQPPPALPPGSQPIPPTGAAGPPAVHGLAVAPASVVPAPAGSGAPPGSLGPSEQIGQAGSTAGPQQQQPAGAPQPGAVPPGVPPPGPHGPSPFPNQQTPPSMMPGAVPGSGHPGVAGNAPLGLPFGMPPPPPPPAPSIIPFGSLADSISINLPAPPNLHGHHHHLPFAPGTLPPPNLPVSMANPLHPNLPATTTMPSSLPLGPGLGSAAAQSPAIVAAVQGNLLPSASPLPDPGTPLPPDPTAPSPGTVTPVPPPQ
EXPERIMENTAL PROTOCOL: Competitive isoTOP-ABPP, cell lysates
Type: binding
CONDITION INFO: 500 μm, in-vitro_ramos
Form: value (number only, do not type unit).

The examples below pair each entry with its known result.
1. O=C(CCl)Nc1ccc(-c2ccccc2)cc1	1.8
2. C=CC(=O)N1CCC(Cc2ccccc2)CC1	1.2
3. N#CC(=Cc1ccc(-c2ccccc2Cl)o1)C(N)=O	1.0

Next, consider the following compound.
[ask] Look at this compound and give its reported isoTOP-ABPP reactivity profile ratio, Q8TAQ2_C145. "O=C(CCl)Nc1cccc2ncccc12"
[reply] 1.1

###

compounds and their reported isoTOP-ABPP ratio Q9UNI6_C265
EXPERIMENTAL TARGET: cysteines in MDA-MB-231 and Ramos cells (Homo sapiens)
EXPERIMENTAL PROTOCOL: Competitive isoTOP-ABPP in situ (fragment-treated cells)
Assay type: cell-based
CONDITION INFO: 200 μM, insitu, 231
Form: value (number only, do not type unit).

The examples below pair each entry with its known result.
1) Cc1ccc(C=C(C#N)C(=O)NCCN2CCOCC2)cc1	1.0
2) CC1CCc2ccccc2N1C(=O)CCl (centres unmarked)	7.5
3) C=CC(=O)Nc1cc(F)c(N2CCN(C(=O)OC(C)(C)C)CC2)c(F)c1	1.0
4) CC(C)CCOCCNC(=O)CCl	0.6

Next, consider the following compound.
[ask] Look at this compound and give its reported isoTOP-ABPP ratio Q9UNI6_C265. "COc1ccccc1OCCNC(=O)CCl"
[reply] 0.8
